system: JHH-2 (Hepatocellular Carcinoma); assay: combination Emax (second highest fraction inhibited in the dose matrix, 72 h); higher = more inhibition; extreme values may be limits of the assay
Readout Name: combination Emax
// response body must contain only the number

Consider the worked cases shown below.
Compound	Measured Value
CN(C)CCCOc1ccc(-c2ccc3ncc4c(c3c2)n(C2CCOCC2)c(=O)n4C)cn1 [AZD0156] + O=C(c1cc(Cc2n[nH]c(=O)c3ccccc23)ccc1F)N1CCN(C(=O)C2CC2)CC1 [Olaparib] (first compound max 3 µM, partner max 3 µM)	0.319
CC1(C)CCC(CN2CCN(c3ccc(C(=O)NS(=O)(=O)c4ccc(NCC5CCOCC5)c([N+](=O)[O-])c4)c(Oc4cnc5[nH]ccc5c4)c3)CC2)=C(c2ccc(Cl)cc2)C1 [Venetoclax] + C1CN(CCC1(C(=O)N[C@@H](CCO)C2=CC=C(C=C2)Cl)N)C3=NC=NC4=C3C=CN4 [Capivasertib] (first compound max 1 µM, 7x7, partner max 3 µM)	0.625

With those in mind, consider the next compound.
Challenge: # combination Emax lookup, item NC1(C(=O)N[C@@H](CCO)c2ccc(Cl)cc2)CCN(c2ncnc3[nH]ccc23)CC1 [Capivasertib] + CC(=O)c1c(C)c2cnc(Nc3ccc(N4CCNCC4)cn3)nc2n(C2CCCC2)c1=O [Palbociclib] (first compound max 10 µM, 7x7, partner max 10 µM)
Response given: 0.608

###

system: KYSE-220 (Esophageal Squamous Cell Carcinoma); test: combination Emax (second highest fraction inhibited in the dose matrix, 72 h); higher = more inhibition; extreme values may be limits of the assay
Readout Name: combination Emax

Challenge: combination Emax lookup needed for Cn1cnc2c(F)c(Nc3ccc(Br)cc3Cl)c(C(=O)NOCCO)cc21 [Selumetinib] + CCN(CCO)CCCOc1ccc2c(Nc3cc(CC(=O)Nc4cccc(F)c4)[nH]n3)ncnc2c1 [AZD2811] (first compound max 10 µM, 7x7, partner max 1 µM) , thanks.
Response given: 0.52

Challenge: Recorded combination Emax for COc1cc2ncnc(Nc3ccc(F)c(Cl)c3)c2cc1OCCCN1CCOCC1 [Gefitinib] + CC(C)n1c(=O)n(C)c2cnc3cc(F)c(-c4ccc(OCCCN5CCCCC5)nc4)cc3c21 [AZD1390] (first compound max 10 µM, 7x7, partner max 0.3 µM) , please?
Response given: 0.431

###

Entries and their measured combination Emax follow.
system: CESS (Acute Myeloid Leukemia); assay: combination Emax (second highest fraction inhibited in the dose matrix, 72 h); higher = more inhibition; extreme values may be limits of the assay
Note: the reply should be a number with no unit written.

Molecule	Target Or Test System	combination Emax
Cc1c2c(nn1C)CSCc1cc(n(C)n1)CSc1cc(c3ccccc3c1)OCCCc1c(C(=O)O)n(C)c3c-2c(Cl)ccc13 [AZD5991] + C[C@@H](Nc1cc(F)cc(F)c1)c1cc(C(=O)N(C)C)cc2c(=O)cc(N3CCOCC3)oc12 [AZD8186] (first compound max 1 µM, 7x7, partner max 3 µM)	CESS (Acute Myeloid Leukemia)	0.554
Cc1c2c(nn1C)CSCc1cc(n(C)n1)CSc1cc(c3ccccc3c1)OCCCc1c(C(=O)O)n(C)c3c-2c(Cl)ccc13 [AZD5991] + Cn1cnc2c(F)c(Nc3ccc(Br)cc3Cl)c(C(=O)NOCCO)cc21 [Selumetinib] (first compound max 1 µM, 7x7, partner max 3 µM)	CESS (Acute Myeloid Leukemia)	0.289
CC1(C)CCC(CN2CCN(c3ccc(C(=O)NS(=O)(=O)c4ccc(NCC5CCOCC5)c([N+](=O)[O-])c4)c(Oc4cnc5[nH]ccc5c4)c3)CC2)=C(c2ccc(Cl)cc2)C1 [Venetoclax] + Cc1cc2ncnn2cc1Nc1ncc2c(n1)n(C1CCOCC1)c(=O)n2C [AZD7648] (first compound max 1 µM, 7x7, partner max 10 µM)	CESS (Acute Myeloid Leukemia)	0.327

Here's the next entry for you.
Challenge: # query: combination Emax | item CC(=O)c1c(C)c2cnc(Nc3ccc(N4CCNCC4)cn3)nc2n(C2CCCC2)c1=O [Palbociclib] + CN(CC[C@H](CSC1=CC=CC=C1)NC2=C(C=C(C=C2)S(=O)(=O)NC(=O)C3=CC=C(C=C3)N4CCC(CC4)[C@H](C5=CC=CC=C5C6=CC=C(C=C6)Cl)O)S(=O)(=O)C(F)(F)F)CCO [AZD4320] (first compound max 10 µM, 7x7, partner max 1 µM) | system: CESS (Acute Myeloid Leukemia)
Response given: 0.906

###

system: 769-P (Kidney Carcinoma); test: combination Emax (second highest fraction inhibited in the dose matrix, 72 h); higher = more inhibition; extreme values may be limits of the assay
Assign yes to entries whose combination Emax meets or exceeds 0.9; assign no to the rest.

Example entries and their recorded answers appear below.
Compound	Label Class
CN(CCO)CC[C@H](CSc1ccccc1)Nc1ccc(S(=O)(=O)NC(=O)c2ccc(N3CCC([C@@H](O)c4ccccc4-c4ccc(Cl)cc4)CC3)cc2)cc1S(=O)(=O)C(F)(F)F [AZD4320] + CC(=O)O[C@H]1C(=O)[C@@]2(C)[C@H]([C@H](OC(=O)c3ccccc3)[C@]3(O)C[C@H](OC(=O)[C@H](O)[C@@H](NC(=O)c4ccccc4)c4ccccc4)C(C)=C1C3(C)C)[C@]1(OC(C)=O)CO[C@@H]1C[C@@H]2O [Paclitaxel] (first compound max 1 µM, 7x7, partner max 3 µM)	yes
CCN(CCO)CCCOc1ccc2c(Nc3cc(CC(=O)Nc4cccc(F)c4)[nH]n3)ncnc2c1 [AZD2811] + C[C@@H]1COCCN1C2=NC(=NC(=C2)C3(CC3)[S@](=N)(=O)C)C4=C5C=CNC5=NC=C4 [AZD6738] (first compound max 1 µM, 7x7, partner max 10 µM)	no
COc1cccc(OCCCN)c1-c1cc(Nc2cnc(C#N)cn2)n[nH]1 [Prexasertib] + C=CCn1c(=O)c2cnc(Nc3ccc(N4CCN(C)CC4)cc3)nc2n1-c1cccc(C(C)(C)O)n1 [AZD1775] (first compound max 1 µM, partner max 1 µM)	no
C=CCn1c(=O)c2cnc(Nc3ccc(N4CCN(C)CC4)cc3)nc2n1-c1cccc(C(C)(C)O)n1 [AZD1775] + C1CN(CCC1(C(=O)N[C@@H](CCO)C2=CC=C(C=C2)Cl)N)C3=NC=NC4=C3C=CN4 [Capivasertib] (first compound max 3 µM, partner max 3 µM)	no

Challenge: Check the entry CC(=O)c1c(C)c2cnc(Nc3ccc(N4CCNCC4)cn3)nc2n(C2CCCC2)c1=O [Palbociclib] + Cc1c2c(nn1C)CSCc1cc(n(C)n1)CSc1cc(c3ccccc3c1)OCCCc1c(C(=O)O)n(C)c3c-2c(Cl)ccc13 [AZD5991] (first compound max 10 µM, 7x7, partner max 1 µM) : does combination Emax equal or exceed 0.9?
Response given: no

Challenge: Does combination Emax meet or surpass 0.9 for CS(=O)(=O)CCNCc1ccc(-c2ccc3ncnc(Nc4ccc(OCc5cccc(F)c5)c(Cl)c4)c3c2)o1 [Lapatinib] + Cn1cnc2c(F)c(Nc3ccc(Br)cc3Cl)c(C(=O)NOCCO)cc21 [Selumetinib] (first compound max 10 µM, 7x7, partner max 10 µM) ?
Response given: yes

Challenge: Textbook exercise: given the entry CC1(C)CCC(CN2CCN(c3ccc(C(=O)NS(=O)(=O)c4ccc(NCC5CCOCC5)c([N+](=O)[O-])c4)c(Oc4cnc5[nH]ccc5c4)c3)CC2)=C(c2ccc(Cl)cc2)C1 [Venetoclax] + COc1cc(Nc2ncc3c(n2)-c2ccc(Cl)cc2C(c2c(F)cccc2OC)=NC3)ccc1C(=O)O [Alisertib] (first compound max 1 µM, 7x7, partner max 10 µM) , state whether its combination Emax is greater than or equal to 0.9.
Response given: no

###

test system: KP-N-YN (Neuroblastoma); assay: combination Emax (second highest fraction inhibited in the dose matrix, 72 h); higher = more inhibition; extreme values may be limits of the assay
Readout Name: combination Emax
Just the number, please.

Here are 2 compounds together with their reported answers.
Compound	combination Emax
O=C(c1cc(Cc2n[nH]c(=O)c3ccccc23)ccc1F)N1CCN(C(=O)C2CC2)CC1 [Olaparib] + CC1(C)CCC(CN2CCN(c3ccc(C(=O)NS(=O)(=O)c4ccc(NCC5CCOCC5)c([N+](=O)[O-])c4)c(Oc4cnc5[nH]ccc5c4)c3)CC2)=C(c2ccc(Cl)cc2)C1 [Venetoclax] (first compound max 10 µM, 7x7, partner max 1 µM)	0.728
CC(=O)c1c(C)c2cnc(Nc3ccc(N4CCNCC4)cn3)nc2n(C2CCCC2)c1=O [Palbociclib] + CC1(C)CCC(CN2CCN(c3ccc(C(=O)NS(=O)(=O)c4ccc(NCC5CCOCC5)c([N+](=O)[O-])c4)c(Oc4cnc5[nH]ccc5c4)c3)CC2)=C(c2ccc(Cl)cc2)C1 [Venetoclax] (first compound max 10 µM, 7x7, partner max 1 µM)	0.42

// switching to the query compound
Challenge: What combination Emax appears in the records for this compound with KP-N-YN (Neuroblastoma)? Cc1cc2ncnn2cc1Nc1ncc2c(n1)n(C1CCOCC1)c(=O)n2C [AZD7648] + O=C(c1cc(Cc2n[nH]c(=O)c3ccccc23)ccc1F)N1CCN(C(=O)C2CC2)CC1 [Olaparib] (first compound max 10 µM, 7x7, partner max 10 µM)
Response given: 0.346
